Data provenance is ChEMBL document CHEMBL1201862.

System: RXF 393
Experiment: NCI tumour cell line growth inhibition, 48 h
Active and inactive are the calls of the source. No stated cut-off is given here; in the data, active = GI50 up to about 1.1 µM and inactive = higher. Where a SMILES comes first, the peptide text is derived from it. The star is where a group is joined. Fmoc = O=C(OCC1c2ccccc2-c2ccccc21)*; Boc = CC(C)(C)OC(=O)*
Measured GI50 values are reported for all entries that follow.

The compound Cn1c2c3ccccc3nc-2c(O)c2ccccc21 [HYDROXYCRYPTOLEPINE] showed GI50 equal to > 100 µM (inactive)

The compound Clc1ccc(Cc2nc3ccccc3nc2-c2cccc(Br)c2)cc1 showed GI50 equal to 2.47 µM (inactive)

Further cases:
The compound O=C(Nc1ccn(C2CCC(CO)O2)c(=O)n1)c1ccccc1 (stereo not given) showed GI50 equal to > 100 µM (inactive)

The compound C/C(=N/N(C=O)C[n+]1ccccc1)C(CN(CC(C)C)CC(C)C)C(=O)Nc1ccc(C)cc1C (stereo not given) showed GI50 equal to 42.9 µM (inactive)

The compound CC(C)(C)OC(=O)NCCCCC(NC(=O)OCC1c2ccccc2-c2ccccc21)C(=O)N1CCCC1C(=O)NCC(N)=O (stereo not drawn) (Fmoc-Lys(Boc)-Pro-Gly-NH2; configuration not given here) showed GI50 equal to 61 µM (inactive)

* * *

Tested on: SN12C
Test: NCI tumour cell line growth inhibition, 48 h
The source made the active and inactive calls. Cut-off read from the data, not from the text of the source: active = GI50 up to about 1.1 µM and inactive = higher.
Write down the outcome that applies. Available outcomes: active, inactive

For orientation, consider the following solved cases.
Q: For N#C/N=C(/NCc1ccccc1)N(Cc1ccccc1)Cc1ccccc1 , which call appears in the assay record?
A: inactive

Q: For C/C=C1\NC(=O)[C@H]2CSSCCC=C[C@H](CC(=O)N[C@H](C(C)C)C(=O)N2)OC(=O)[C@H](C(C)C)NC1=O , which call appears in the assay record?
A: active

Q: For CCOC(=O)C(SCCO)C(C(=O)OCC)n1cnc2c(=O)[nH]c(NC(C)=O)nc21 (stereo not given) , which call appears in the assay record?
A: inactive

Q: For CCOC(=O)c1nc2ccc(C(F)(F)F)cc2nc1Nc1ccc(Cl)c(Cl)c1 , which call appears in the assay record?
A: inactive

Q: For Cc1ccc(-n2cc(-c3ccc(Cl)cc3)c3c(NN)ncnc32)cc1 , which call appears in the assay record?
A: inactive

Q: For O=C1/C=C(/c2ccc(O)cc2)[C@@H](O)Cc2ccc(O)cc2O1 , which call appears in the assay record?
A: inactive

Further cases:
Q: For CCOC(=O)C1=C(C)NC(C)=C(C(=O)OCC)C1c1ccc(Cl)cc1 , which call appears in the assay record?
A: inactive

Q: For COC1CCCCN1C(=O)c1ccccc1 (stereo not given) , which call appears in the assay record?
A: inactive

Q: For O=C(CCCNC(=O)OCc1ccccc1)OCc1ccc2c(c1)C(=O)c1ccccc1C2=O , which call appears in the assay record?
A: inactive

Q: For c1ccc2c(c1)CCN(C1=NCCO1)C2 , which call appears in the assay record?
A: inactive

Q: For Cc1ccc([S+]([O-])/C=C(\NC(=O)OCc2ccccc2)C(F)(F)F)cc1 (stereo not given) , which call appears in the assay record?
A: inactive

Q: For O=C1c2cccc([N+](=O)[O-])c2C(=O)c2nccnc21 , which call appears in the assay record?
A: inactive

Q: For CCCCc1c2c(nc3c1CCc1cc(C=O)c(N)nc1-3)/C(=C/c1ccccc1)CCC2 , which call appears in the assay record?
A: inactive

Q: For CC(=O)N(/N=C\c1ccc([N+](=O)[O-])cc1)c1ccccc1 , which call appears in the assay record?
A: inactive

Q: For CCOC(=O)CCC(NC(=O)c1ccc(OCc2ccc3nc(-c4ccccc4)c(Cl)nc3c2)cc1)C(=O)OCC (stereo not given) , which call appears in the assay record?
A: inactive

Q: For COc1ccc2[nH]c(Cl)c(/C=C3/C(=O)Nc4cc(C)c(OC)cc43)c2c1 , which call appears in the assay record?
A: inactive

Q: For CC1=[N+]([O-])c2ccccc2C(=O)C1=O , which call appears in the assay record?
A: inactive
